Assignment: determine reported MA, % for the given compounds.
Tested on: Collagen-induced thrombocyte aggregation
Method Description: Collagen-induced thrombocyte aggregation, donor human thrombocyte enriched plasm
Assay type: cell-based
Stated Conditions: 1.25 mmol/L; collagen inductor; human thrombocyte plasm
Your answer should be a plain number; it is taken to be in %.

For the compound shown here, CCOc1ccc(CN2CCN(C(=N)N)CC2)c(OCC)c1OCC.Cl , give the reported MA, %.
63.7

Another compound: COc1cc(C(=O)N2CCN(C(=N)N)CC2)cc(OC)c1OC.O=C(O)/C=C/C(=O)O
60.7

# iterate: Cl.N=C(N)N1CCN(S(=O)(=O)c2cc(Cl)c(Cl)cc2Cl)CC1
62.0

Could you do the same for COc1ccc(CN2CCN(C(=N)N)CC2)c(OC)c1OC.O=C(O)/C=C/C(=O)O , please?
63.5

Try this compound too: O=C(O)/C=C/c1ccc(Cn2ccnc2)cc1 [Ozagrel, reference compound]
64.1

One more compound: COc1ccc(CN2CCN(C(=N)NC(=N)N)CC2)c(OC)c1OC.Cl
59.0

Next record, please: COc1ccc(C(=O)N2CCN(C(=N)NC(=N)N)CC2)c(OC)c1OC.Cl
65.10

Also COc1cc(CN2CCN(C(=N)N)CC2)ccc1OCC(C)C.Cl ?
63.1

====

Test system: Collagen-induced thrombocyte aggregation
Method Description: Collagen-induced thrombocyte aggregation, donor human thrombocyte enriched plasm
Format: cell-based
Stated Conditions: Homo sapiens; 1.25 mmol/L; collagen inductor; read-out: (MA0-MAx): MA0 * 100%
Please provide measured inhibition at 1250 µM for the entries that follow.
Please give a number only; it is taken to be in %.

Form field - read-out: inhibition at 1250 µM; system: Collagen-induced thrombocyte aggregation; submitted item: Cl.N=C(N)N1CCN(S(=O)(=O)c2cc(Cl)c(Cl)cc2Cl)CC1 [Example 13, hydrochloride]
20.2

Now this one: COc1ccc(CN2CCN(C(=N)N)CC2)c(OC)c1OC.O=C(O)/C=C/C(=O)O [Example 8, fumarate]
16.8

Try this compound next: CCOc1ccc(CN2CCN(C(=N)N)CC2)c(OCC)c1OCC.Cl [Example 5, hydrochloride]
19.1

Same lookup for COc1cc(CN2CCN(C(=N)N)CC2)ccc1OCC(C)C.Cl [Example 12, hydrochloride] , please.
16.8

====

System: Ristocetin-induced thrombocyte aggregation
Method Description: Ristocetin-induced thrombocyte aggregation, donor human thrombocyte enriched plasm
Type: cell-based
Stated Conditions: 2.5 mmol/L; ristocetin inductor
Procedure: The study of antiaggregant and anticoagulant properties of N,N′-substituted piperazines on the sample of donor human blood. The blood was collected by donor ulnar vein punction with dry sharp needle without syringe. […] The study of anticoagulant activity was done within 2 h after thrombocyte enriched plasm obtaining. […] The concentration of thrombocytes was measured on SOLAR AR 2110 analyzer. […]
Endpoint Name: (MAx-MA0): MA0 * 100% (Ozagrel: (MA0-MAx): MA0 * 100%)
Numeric only. Scale: %

Can you share its (MAx-MA0): MA0 * 100% (Ozagrel: (MA0-MAx): MA0 * 100%)? I mean this molecule: Cl.N=C(N)N1CCN(S(=O)(=O)c2cc(Cl)c(Cl)cc2Cl)CC1
43.4

Repeat with COc1cc(C(=O)N2CCN(C(=N)N)CC2)cc(OC)c1OC.O=C(O)/C=C/C(=O)O
22.7

Now give it for COc1ccc(CN2CCN(C(=N)N)CC2)c(OC)c1OC.O=C(O)/C=C/C(=O)O too.
35.1

Next record, please: O=C(O)/C=C/c1ccc(Cn2ccnc2)cc1 [Ozagrel, reference compound]
28.4

Now the same for COc1ccc(CN2CCN(CC(O)CS(=O)(=O)[O-])CC2)c(OC)c1OC.[Na+] (centres unmarked)
24.0
